- TESTED SYSTEM: UniProt:P35348
- Sequence (P35348 1-466): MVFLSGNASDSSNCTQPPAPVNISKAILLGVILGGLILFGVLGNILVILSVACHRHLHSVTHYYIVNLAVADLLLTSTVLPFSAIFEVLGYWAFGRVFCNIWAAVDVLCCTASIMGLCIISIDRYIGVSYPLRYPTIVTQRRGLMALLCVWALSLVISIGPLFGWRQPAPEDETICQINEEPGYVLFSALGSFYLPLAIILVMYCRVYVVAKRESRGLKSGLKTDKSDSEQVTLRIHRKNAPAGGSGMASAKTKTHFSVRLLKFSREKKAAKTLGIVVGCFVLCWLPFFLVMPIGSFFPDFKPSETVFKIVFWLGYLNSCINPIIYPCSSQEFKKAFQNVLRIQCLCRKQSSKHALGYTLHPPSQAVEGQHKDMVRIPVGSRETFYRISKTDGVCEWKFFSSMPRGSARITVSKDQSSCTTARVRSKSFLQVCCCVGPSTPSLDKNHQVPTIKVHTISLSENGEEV
VALUE KIND: pKi
In textbook form, pKi equals minus log to base ten of the concentration in mol/L.

Exam item: Report pKi for "N#Cc1ccccc1C1(C#N)CCN(CCCNC(=O)N2C(=O)O[C@@H](C(N)=O)[C@@H]2c2ccc(F)c(F)c2)CC1" tested on UniProt:P35348.
Marked response: 8.41
